# Test system: CEM cells HIV-1 protection, formazan growth assay
# testName: NCI AIDS Antiviral Assay
# testParameters: measured here: growth of uninfected CEM cells
endpoint: pIC50
In simple prose, pIC50 is minus the logarithm base ten of a concentration in moles per litre.

Example cases with answers are listed next.
Requested read-out: pIC50. Entry: `C/C(=N\NC(=S)N(C)CCN(C)C(=S)N/N=C(\C)c1ccccn1)c1ccccn1`
5.61

What value of pIC50 has been reported for the following compound? O=S(=O)(O)C(O)CC=C(C(O)S(=O)(=O)O)C(O)S(=O)(=O)O (stereo unspecified)
4.09

Query: pIC50; subject: `Cc1cc(C)c(S(=O)(=O)N(CCCCN)OCCCN)c(C)c1`
4.55

Param item = `Cc1cc2c(c(=O)[nH]1)C(=O)NC2=O` ; retrieve measured pIC50.
3.33

Which measured pIC50 value corresponds to CC(=O)N1C(=O)C(C)(C2=CC(=O)c3ccccc3C2=O)c2ccc(Br)cc21 (stereo unspecified) ?
5.64

Which pIC50 reading was recorded for the compound `CCSC1=[N+](SCC)CCCS1` ?
3.57

Which pIC50 reading was recorded for the compound CC12CC[C@H](O)C(C)(C)[C@H]1CC[C@](C)(O)C2COc1ccc2ccc(=O)oc2c1 (stereo partly specified) ?
3.54

Return reported pIC50; argument: `O=C(CCCC[n+]1ccccc1)Sc1ccccc1C(=O)Nc1ccc(S(=O)(=O)c2ccc([N+](=O)[O-])cc2)cc1`
3.86

Others:
# input compound: `Cc1ccc(N(C)S(=O)(=O)c2ccc([N+](=O)[O-])cc2)cc1` ; wanted: its pIC50
3.75

Look up pIC50: `CCOC(=O)/C(=C/c1ccccc1)C(=O)c1ccccc1`
4.70

Return reported pIC50; argument: `COc1cccc(Nc2nc(N)nc(N)c2N=O)c1`
4.95

Looking for the measured pIC50 of `C=CC(C)(C)c1cc(O)c2oc3c(O)cccc3c(=O)c2c1O` , can you help?
4.43

What measured pIC50 goes with `[Se]c1nc2ccccc2o1` ?
4.27
